Entries and their pIC50 values follow.
Target: human GPR68 (Homo sapiens)
Construct: encoding full-length human GPR68 (uniprot ID: Q15743); expressed in transfected cells; host or cells: HEK293T
Sequence (Q15743 whole entry): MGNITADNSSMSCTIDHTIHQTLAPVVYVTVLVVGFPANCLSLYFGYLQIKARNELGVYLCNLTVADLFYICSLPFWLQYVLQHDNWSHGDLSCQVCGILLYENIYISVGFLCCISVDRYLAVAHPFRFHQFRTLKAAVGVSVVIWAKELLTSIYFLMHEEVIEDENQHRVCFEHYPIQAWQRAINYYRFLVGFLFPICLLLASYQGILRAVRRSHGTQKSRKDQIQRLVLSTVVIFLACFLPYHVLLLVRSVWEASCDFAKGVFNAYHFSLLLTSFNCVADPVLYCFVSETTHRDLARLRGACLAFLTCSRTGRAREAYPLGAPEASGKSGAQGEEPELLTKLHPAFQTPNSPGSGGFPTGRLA
Assay: GPR68 Biochemical Assay (Promega GloSensor cAMP assay, GPR68 antagonism)
Type: cell-based
Conditions: HEK293T cells transiently expressing hGPR68, antagonism of pH 5.5 stimulated cAMP, 15 min, read-out: hGPR68 IC50
pIC50: −log10 of the molar value.

Example entries and their recorded answers appear below.
NC(=O)c1c(C2CC2)nn2c(C(=O)N[C@@H]3CCS(=O)(=O)c4ccccc43)ccnc12 : > 7.30
COCc1nn2c(C(=O)N[C@H]3COc4ccc(F)cc43)ccnc2c1C(N)=O : > 7.30
N#C[C@H]1C[C@@H](NC(=O)c2ccnc3c(C(N)=O)cnn23)C1 : 5.30 to 6.30
COCc1nn2c(C(=O)NCc3ccc4c(c3)CCO4)ccnc2c1C(N)=O : 6.30 to 7.30
COCc1nc2c(C(=O)NC3CCC(F)(F)CC3)cc(C)nn2c1C(N)=O : 6.30 to 7.30
CCC(CNC(=O)c1ccnc2c(C(N)=O)cnn12)Oc1cccc(C)c1 (centres unmarked) : 4.30 to 5.30

The reported pIC50 of the compound CNc1nn2c(C(=O)NC3CC(F)(F)C3)ccnc2c1C(N)=O was > 7.30

Memo: COCc1nc2c(C(=O)NC3CCS(=O)(=O)c4ccccc43)ccnn2c1C(N)=O (centres unmarked) , reported pIC50: 6.30 to 7.30
